Values compiled from the supplement of paper PMC12764529.

test: folding stability dG unfold (combined trypsin and chymotrypsin); higher = more stable
# label = 1 (yes) if folding stability dG unfold >= 1 kJ/mol else 0 (no)

- seq: "SAGGSSIPRALLEAMPPDAELEFEDPSSNVRIKVTRLGPDRLEITTTVYPPGPDTPVSSETTTDPLASAGGS [r16_163_JUSTAS]"
  assigned_category: "0 (no)"
- seq: "SAGKWKVRTIPLPGFSITIWYDPDEGRIRISITMWMWKPKKDPENGKPKQEHRMMTMEAPIPIPPGAPISAG [r5_195_TrROS]"
  assigned_category: "1 (yes)"
- seq: "SAGGSAGGSAGGGKNRPVIPITEGDKDEAKEFADTFQKEWRRQNGEPAQNVDIDIVPTPSAGGSAGGSAGGS [r10_1216_TrROS]"
  assigned_category: "0 (no)"
- seq: "SAGGSAGGSAMKPVPFEVLSVSYPVLPNGTRIRLVEIKFPETGEVKWIELSPDDPVIKALLSAGGSAGGSAG [r3_57_JUSTAS]"
  assigned_category: "1 (yes)"
- seq: "SAMRMISFPIESPEELEDELEEKFGVEVETFPDGMRMIKFRRNNEPVIIMIPPNNGHITIIPPEDMDKMSAG [r14_402_TrROS]"
  assigned_category: "1 (yes)"
- seq: "SAGGSAGGSAGGAPLVEVEEVETRRVKDPATKRWYRRTRVRVRNKETGEWYELEFVEPLSAGGSAGGSAGGS [r10_535_TrROS_Hall]"
  assigned_category: "1 (yes)"
- seq: "SAGGSGMWTPKQVKLLAEPGKSKTITIPGPVSEEEINALLNAGEPVIITLPDGTVLKAEKNTITLESAGGSA [r2_33_JUSTAS]"
  assigned_category: "0 (no)"
- seq: "SAGGSAGGSAMTPVTIKVTLTNPATGSTTTKTIYVPEPNPSVEEIKKKLPSDWTVTSITLSSAGGSAGGSAG [r3_80_JUSTAS]"
  assigned_category: "1 (yes)"
- seq: "SAGGSAGGSAGGGMIPVSTSETVVPGPSRLVRRTTTTYRDPVTGKLYTTSSTTVLPPAASAGGSAGGSAGGS [r10_190_JUSTAS]"
  assigned_category: "1 (yes)"
- seq: "SAGGMTLEEVRALAQRVSREPLPGGGSRWVVTFPRPVPGGPAAPVTREIPVPADRPDATEEEVLARLVSAGG [r13_319_JUSTAS]"
  assigned_category: "0 (no)"
- seq: "SAGGSAGGSAGGSMKIEIVTNDPKKAEEIKEKLEKEGYPKKKNPINIEVKEISEEELLKSAGGSAGGSAGGS [r4_281_JUSTAS]"
  assigned_category: "1 (yes)"
- seq: "SMPPLGEETTLLETIELPEKLTVEIRRVTLPNGVPLIEVSKTDPSGNTTPIFRAPGNDPAALAAARAALASA [r9_1069_JUSTAS]"
  assigned_category: "1 (yes)"
- seq: "SAGGEFKLKREEDPDGERKITLEFPGWPYEVVIPKNAKDLPPGNPIYVRGGGGTRTMPIKDLLPELLNSAGG [r13_97_TrROS]"
  assigned_category: "0 (no)"
- seq: "SAGGSAEPPVKEIAEKLIKKSKKPIIATVVEKKKDGYLVTKVKYIPNTGKPIIKVKKITPEELKKKSAGGSA [r15_156_TrMRF]"
  assigned_category: "0 (no)"
